Listing of recorded RLU by entry.
Target: human TAS2R1 (Homo sapiens)
Construct: expressed in transfected cells; host or cells: HEK293T-Gα16gust44
Sequence (Q9NYW7 whole entry): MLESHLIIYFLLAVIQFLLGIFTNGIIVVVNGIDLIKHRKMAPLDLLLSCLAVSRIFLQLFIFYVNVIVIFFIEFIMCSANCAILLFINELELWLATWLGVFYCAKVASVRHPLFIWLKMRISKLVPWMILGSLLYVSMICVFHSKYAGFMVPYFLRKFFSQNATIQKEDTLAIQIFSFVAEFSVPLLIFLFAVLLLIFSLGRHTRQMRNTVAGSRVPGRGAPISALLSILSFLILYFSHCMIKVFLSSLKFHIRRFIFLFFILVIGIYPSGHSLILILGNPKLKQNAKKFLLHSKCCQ
Assay: Calcium imaging assay (FLIPR), HEK293T-Gα16gust44 cells transfected with human TAS2R1
Type: cell-based
Conditions: Time 12.015 s
Write down the numeric answer in RLU and omit the unit.

Example entries begin here.
1. C[C@H](CCC(=O)O)[C@H]1CC[C@H]2[C@@H]3CC[C@@H]4C[C@H](O)CC[C@]4(C)[C@H]3CC[C@]12C | -16.4638
2. C[C@H](CCC(=O)O)[C@H]1CC[C@H]2[C@@H]3[C@H](O)C[C@@H]4C[C@H](O)CC[C@]4(C)[C@H]3C[C@H](O)[C@]12C | -39.0663
3. C[C@H](CCC(=O)O)[C@H]1CC[C@H]2[C@@H]3[C@H](O)C[C@@H]4C[C@H](O)CC[C@]4(C)[C@H]3CC[C@]12C | 20.3444

Which RLU value belongs to `C[C@H](CCC(=O)O)[C@H]1CC[C@H]2[C@@H]3[C@@H](O)C[C@@H]4C[C@H](O)CC[C@]4(C)[C@H]3CC[C@]12C` ?
-0.9118

----------
Target: mouse Tas2r144 (Mus musculus, UniProt Q7TQB8)
Construct: expressed in transfected cells; host or cells: HEK293T-Gα16gust44
Sequence (Q7TQB8 whole entry): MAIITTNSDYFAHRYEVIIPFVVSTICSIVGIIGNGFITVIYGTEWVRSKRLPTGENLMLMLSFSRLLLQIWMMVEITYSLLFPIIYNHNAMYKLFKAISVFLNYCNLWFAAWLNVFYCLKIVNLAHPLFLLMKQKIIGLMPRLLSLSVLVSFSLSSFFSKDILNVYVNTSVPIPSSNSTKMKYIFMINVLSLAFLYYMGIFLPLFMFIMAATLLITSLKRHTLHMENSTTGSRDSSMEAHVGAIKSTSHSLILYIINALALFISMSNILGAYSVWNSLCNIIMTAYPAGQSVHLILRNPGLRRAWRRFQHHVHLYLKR
Test: Calcium imaging assay (FLIPR), HEK293T-Gα16gust44 cells transfected with mouse Tas2r144
Format: cell-based
Settings: Time 8 s
Experimental: This set of bile acids was chosen because of their commercial availability in high purities, their diversity within the class of bile acids and their previous detection and quantitation in human blood. Stock solutions were prepared in DMSO. […] Measured data were negative control corrected by subtracting the signal of the mock-transfected cells and exported to Microsoft Excel using the FLIPR software ScreenWorks 4.2. […]
parameter: RLU (RLU)
Write down the numeric answer in RLU and omit the unit.

1. C[C@H](CCC(=O)NCCS(=O)(=O)O)[C@H]1CC[C@H]2[C@@H]3[C@H](O)C[C@@H]4C[C@H](O)CC[C@]4(C)[C@H]3C[C@H](O)[C@]12C [Taurocholic Acid, taurocholic acid] | 19.0475
2. C[C@H](CCC(=O)O)[C@H]1CC[C@H]2[C@@H]3[C@H](O)C[C@@H]4C[C@H](O)CC[C@]4(C)[C@H]3C[C@H](O)[C@]12C [Cholic Acid, cholic acid] | 13.5839
3. C[C@H](CCC(=O)NCC(=O)O)[C@H]1CC[C@H]2[C@@H]3[C@H](O)C[C@@H]4C[C@H](O)CC[C@]4(C)[C@H]3C[C@H](O)[C@]12C [Glycocholic Acid, glycocholic acid] | -5.711

Which RLU value belongs to C[C@H](CCC(=O)NCCS(=O)(=O)O)[C@H]1CC[C@H]2[C@@H]3CC[C@@H]4C[C@H](O)CC[C@]4(C)[C@H]3CC[C@]12C [Taurolithocholic Acid, taurolithocholic acid] ?
1.321

----------
Biological target: human TAS2R14 (Homo sapiens, UniProt Q9NYV8)
Construct: expressed in transfected cells; host or cells: HEK293T-Gα16gust44
Sequence (Q9NYV8 whole entry): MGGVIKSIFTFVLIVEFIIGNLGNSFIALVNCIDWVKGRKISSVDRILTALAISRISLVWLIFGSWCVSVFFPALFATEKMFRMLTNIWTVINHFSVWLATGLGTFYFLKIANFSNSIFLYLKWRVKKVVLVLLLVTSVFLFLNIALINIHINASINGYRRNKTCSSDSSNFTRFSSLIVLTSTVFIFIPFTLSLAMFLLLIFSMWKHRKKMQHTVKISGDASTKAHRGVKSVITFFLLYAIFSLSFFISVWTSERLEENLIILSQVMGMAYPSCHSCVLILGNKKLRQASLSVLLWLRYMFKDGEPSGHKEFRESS
Assay: Calcium imaging assay (FLIPR), HEK293T-Gα16gust44 cells transfected with human TAS2R14
Type: cell-based
Details: TAS2R14 trace; Time (s) 167.578 (Taurocholic Acid 167.563, Chenodeoxycholic Acid 167.546)
Listing of recorded RLU by entry.
Write down the numeric answer in RLU and omit the unit.

1) C[C@H](CCC(=O)NCCS(=O)(=O)O)[C@H]1CC[C@H]2[C@@H]3CC[C@@H]4C[C@H](O)CC[C@]4(C)[C@H]3CC[C@]12C | 378.911
2) C[C@H](CCC(=O)NCC(=O)O)[C@H]1CC[C@H]2[C@@H]3[C@H](O)C[C@@H]4C[C@H](O)CC[C@]4(C)[C@H]3C[C@H](O)[C@]12C | 731.625
3) C[C@H](CCC(=O)O)[C@H]1CC[C@H]2[C@@H]3[C@H](O)C[C@@H]4C[C@H](O)CC[C@]4(C)[C@H]3C[C@H](O)[C@]12C | 1122.87

Which RLU value belongs to `C[C@H](CCC(=O)O)[C@H]1CC[C@H]2[C@@H]3[C@H](O)C[C@@H]4C[C@H](O)CC[C@]4(C)[C@H]3CC[C@]12C` ?
343.975

Which RLU value belongs to `C[C@H](CCC(=O)NCCS(=O)(=O)O)[C@H]1CC[C@H]2[C@@H]3[C@H](O)C[C@@H]4C[C@H](O)CC[C@]4(C)[C@H]3C[C@H](O)[C@]12C` ?
918.668

----------
Target: human TAS2R14 (Homo sapiens)
Construct: expressed in transfected cells; host or cells: HEK293T-Gα16gust44
Assay: Calcium imaging assay (FLIPR), HEK293T-Gα16gust44 cells transfected with human TAS2R14
Format: cell-based
Conditions: TAS2R14 trace; Time (s) 112.797 (Chenodeoxycholic Acid 112.781)
Label Criterion met when RLU is strictly below 900 RLU; otherwise label Criterion not met.

1. C[C@H](CCC(=O)NCCS(=O)(=O)O)[C@H]1CC[C@H]2[C@@H]3[C@H](O)C[C@@H]4C[C@H](O)CC[C@]4(C)[C@H]3C[C@H](O)[C@]12C [Taurocholic Acid, taurocholic acid] | Criterion not met
2. C[C@H](CCC(=O)NCCS(=O)(=O)O)[C@H]1CC[C@H]2[C@@H]3CC[C@@H]4C[C@H](O)CC[C@]4(C)[C@H]3CC[C@]12C [Taurolithocholic Acid, taurolithocholic acid] | Criterion met
3. C[C@H](CCC(=O)O)[C@H]1CC[C@H]2[C@@H]3[C@H](O)C[C@@H]4C[C@H](O)CC[C@]4(C)[C@H]3CC[C@]12C [Chenodeoxycholic Acid, chenodeoxycholic acid] | Criterion met

Query compound follows.
Hi there! Is RLU for C[C@H](CCC(=O)O)[C@H]1CC[C@H]2[C@@H]3[C@H](O)C[C@@H]4C[C@H](O)CC[C@]4(C)[C@H]3C[C@H](O)[C@]12C [Cholic Acid, cholic acid] below 900 RLU, do you know?
Criterion not met

----------
Molecular target: human TAS2R4 (Homo sapiens, UniProt Q9NYW5)
Construct: expressed in transfected cells; host or cells: HEK293T-Gα16gust44
Sequence (Q9NYW5 whole entry): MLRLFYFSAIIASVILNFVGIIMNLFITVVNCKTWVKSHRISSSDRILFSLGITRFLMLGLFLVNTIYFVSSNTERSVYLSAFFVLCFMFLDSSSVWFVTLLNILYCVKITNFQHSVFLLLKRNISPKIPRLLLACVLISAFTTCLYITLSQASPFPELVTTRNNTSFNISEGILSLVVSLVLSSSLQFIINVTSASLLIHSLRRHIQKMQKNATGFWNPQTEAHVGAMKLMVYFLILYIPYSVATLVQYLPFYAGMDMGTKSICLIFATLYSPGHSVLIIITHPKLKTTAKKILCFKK
Assay: Calcium imaging assay (FLIPR), HEK293T-Gα16gust44 cells transfected with human TAS2R4; also: test concentration or dose not given here
Type: cell-based
Conditions: Time (s) 335.547
Listing of recorded RLU, fluorescence trace by entry.
Write down the numeric answer in RLU and omit the unit.

1. C[C@H](CCC(=O)NCCS(=O)(=O)O)[C@H]1CC[C@H]2[C@@H]3[C@H](O)C[C@@H]4C[C@H](O)CC[C@]4(C)[C@H]3C[C@H](O)[C@]12C [Taurocholic Acid, taurocholic acid] | 162.738
2. C[C@H](CCC(=O)O)[C@H]1CC[C@H]2[C@@H]3CC[C@@H]4C[C@H](O)CC[C@]4(C)[C@H]3C[C@H](O)[C@]12C [Deoxycholic Acid, deoxycholic acid] | 360.917

Okay, now this molecule:
Hi! What's the reported RLU, fluorescence trace for C[C@H](CCC(=O)O)[C@H]1CC[C@H]2[C@@H]3[C@@H](O)C[C@@H]4C[C@H](O)CC[C@]4(C)[C@H]3CC[C@]12C [Ursodeoxycholic Acid, ursodeoxycholic acid] on human TAS2R4 (Homo sapiens, UniProt Q9NYW5)?
149.888

----------
Target: human TAS2R4 (Homo sapiens, UniProt Q9NYW5)
Construct: expressed in transfected cells; host or cells: HEK293T-Gα16gust44
Assay: Calcium imaging assay (FLIPR), HEK293T-Gα16gust44 cells transfected with human TAS2R4; also: test concentration or dose not given here
Assay type: cell-based
Conditions: Time (s) 221.547
parameter: RLU, fluorescence trace (RLU)
Write down the numeric answer in RLU and omit the unit.

Example entries begin here.
1. C[C@H](CCC(=O)O)[C@H]1CC[C@H]2[C@@H]3[C@@H](O)C[C@@H]4C[C@H](O)CC[C@]4(C)[C@H]3CC[C@]12C [Ursodeoxycholic Acid, ursodeoxycholic acid] | 144.396
2. C[C@H](CCC(=O)O)[C@H]1CC[C@H]2[C@@H]3CC[C@@H]4C[C@H](O)CC[C@]4(C)[C@H]3C[C@H](O)[C@]12C [Deoxycholic Acid, deoxycholic acid] | 327.885
3. C[C@H](CCC(=O)NCCS(=O)(=O)O)[C@H]1CC[C@H]2[C@@H]3[C@H](O)C[C@@H]4C[C@H](O)CC[C@]4(C)[C@H]3C[C@H](O)[C@]12C [Taurocholic Acid, taurocholic acid] | 241.962
4. C[C@H](CCC(=O)O)[C@H]1CC[C@H]2[C@@H]3[C@H](O)C[C@@H]4C[C@H](O)CC[C@]4(C)[C@H]3C[C@H](O)[C@]12C [Cholic Acid, cholic acid] | 260.591
5. C[C@H](CCC(=O)NCCS(=O)(=O)O)[C@H]1CC[C@H]2[C@@H]3CC[C@@H]4C[C@H](O)CC[C@]4(C)[C@H]3CC[C@]12C [Taurolithocholic Acid, taurolithocholic acid] | 77.9879

Okay, now this compound:
Hi! What's the reported RLU, fluorescence trace for C[C@H](CCC(=O)NCC(=O)O)[C@H]1CC[C@H]2[C@@H]3[C@H](O)C[C@@H]4C[C@H](O)CC[C@]4(C)[C@H]3C[C@H](O)[C@]12C [Glycocholic Acid, glycocholic acid] on human TAS2R4 (Homo sapiens, UniProt Q9NYW5)?
173.704
